Data credit: the supplement of paper PMC10126150

Test system: ATP;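 note: ATP exposure 15 min at 22 °C before imaging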
experiment notes: switch fluorescence ratio, 500 uM ATP over buffer (Cy3 cluster intensity, sum of 5 cycles each) (fold (ratio)); higher = stronger signal-on switching upon ATP binding; sequences stand for … in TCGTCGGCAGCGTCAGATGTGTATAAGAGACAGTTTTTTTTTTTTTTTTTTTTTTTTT…TC
run conditions: aptamer strand: ATP DNA aptamer (quencher-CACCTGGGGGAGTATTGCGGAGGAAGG + anchor), 100 nM annealed; ATP concentration: 500 uM
property label: switch fluorescence ratio

Reference set, count: 2
TATTAACATC    1.04
AACTAGATG    0.982

State the recorded switch fluorescence ratio for every item in the following list.
1. AGCCTGCCCG
2. AACTTTAGTG
3. GCCCAATTTT
4. GGTGCGATTG
5. AGTATGTAAA

Result block:
1.05
0.991
0.998
1.07
1.02

Hey, can you go through the list below and give me switch fluorescence ratio for every item?
1. ATACGATGAT
2. TCGGCTATTT
3. TGGGTAAAAT
4. TAGGCTTTCG
5. TTTGCAATGT

Result block:
1: 1.04; 2: 1.03; 3: 0.971; 4: 0.996; 5: 1.29

Hi there! I need switch fluorescence ratio for each item below, if you can.
1. ACGTACTATT
2. CTTTGGTTGA
3. ATTGGGAATC

Result block:
[1.45, 0.995, 0.992]

Record switch fluorescence ratio for all entries; do not skip any.
1. TTATTAGATT
2. TGCAGTCATG
3. GAAATGAAGG
4. TTTAATATTT
5. GACCGATGTG
6. TTATGATGGA

Result block:
1: 1.01; 2: 0.995; 3: 0.973; 4: 1.04; 5: 1.01; 6: 0.991

Parameters: items (list). Returns: switch fluorescence ratio for each item.
1. TTCGGGGCGC
2. TAGTGCCTGT
3. AGGGGGAAAC
4. GATGGTGTAA
5. GCTGATGTTT

Result block:
1: 1.03; 2: 0.995; 3: 1.01; 4: 0.967; 5: 1.02

Hey, quick one: what's switch fluorescence ratio for each of these?
1. GACTCAAGTT
2. GCGATCAGCT
3. AAGGTTTTAA
4. GAAGCGTGTC
5. GGGGGATACG
6. GCTCTGAGTG
7. AGTGGCATTA
8. AATTCCTCAT

Result block:
1.05
1.03
0.982
1.02
0.997
1.01
0.985
1.04

Give switch fluorescence ratio for all sequences that follow.
1. ATGGGGGTCC
2. GATAAAGTAA
3. AGTAACTTGA

Result block:
1.01
0.983
1

Please look at the items below and tell me switch fluorescence ratio for each one, in order.
1. CTTAGGACGC
2. GGCATAACAC
3. AGGTTTATCA
4. ATTGAGTGTT
5. GTGGCTGAGG
6. AGGGCACATA

Result block:
1: 1.22; 2: 1.09; 3: 0.991; 4: 0.987; 5: 1; 6: 1.08
